target: Sphingosine kinase 1 (Homo sapiens, UniProt Q9NYA1); assay: Scintillation Proximity Assay: SphK activity was measured by a scintillation proximity assay as previously described [1], the disclosure of which is incorporated herein. Briefly, recombinant SphK1 or SphK2 were expressed in Sf9 insect cells, crude homogenates were prepared and incubated in 96 well FlashPlates (Perkin-Elmer) in a buffer containing D-erythro-sphingosine and γ-[33P]ATP. The [33P]S1P …
Sequence (Q9NYA1 whole entry): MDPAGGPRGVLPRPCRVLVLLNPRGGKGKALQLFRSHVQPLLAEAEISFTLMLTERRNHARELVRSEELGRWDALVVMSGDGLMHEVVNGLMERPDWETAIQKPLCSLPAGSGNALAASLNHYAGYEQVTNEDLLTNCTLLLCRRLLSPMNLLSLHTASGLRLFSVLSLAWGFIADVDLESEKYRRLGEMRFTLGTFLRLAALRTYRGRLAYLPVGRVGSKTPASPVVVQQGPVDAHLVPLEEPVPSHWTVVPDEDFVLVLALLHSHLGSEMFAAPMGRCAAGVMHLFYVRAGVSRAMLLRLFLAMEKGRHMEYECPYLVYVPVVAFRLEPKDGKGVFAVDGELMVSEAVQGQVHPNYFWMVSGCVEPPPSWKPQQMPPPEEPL
PARAMETER: Ki

{"columns": ["RECORD SMILES", "Ki"],
 "data": [
  ["CCCCCCCCCCCc1cccc(-c2nnc(C3(C(=N)N)CC3)o2)c1", "< 1000 nM"],
  ["CCCCCCCCCCCc1cc(-c2noc(C3(C(=N)N)CC3)n2)ccc1C", "< 1000 nM"]
]}

Exercise: Could you tell me which Ki is on file for `N=C(N)C1(c2nc(-c3cccc(CCc4cccc(CCC5CCCCC5)c4)c3)no2)CC1` ?
Key: < 1000 nM

// data source = ChEMBL document CHEMBL5725362
